Documented Kd across a set of compounds
Molecular target: RARα (Homo sapiens, UniProt P10276)
Sequence (P10276 whole entry, species assumed): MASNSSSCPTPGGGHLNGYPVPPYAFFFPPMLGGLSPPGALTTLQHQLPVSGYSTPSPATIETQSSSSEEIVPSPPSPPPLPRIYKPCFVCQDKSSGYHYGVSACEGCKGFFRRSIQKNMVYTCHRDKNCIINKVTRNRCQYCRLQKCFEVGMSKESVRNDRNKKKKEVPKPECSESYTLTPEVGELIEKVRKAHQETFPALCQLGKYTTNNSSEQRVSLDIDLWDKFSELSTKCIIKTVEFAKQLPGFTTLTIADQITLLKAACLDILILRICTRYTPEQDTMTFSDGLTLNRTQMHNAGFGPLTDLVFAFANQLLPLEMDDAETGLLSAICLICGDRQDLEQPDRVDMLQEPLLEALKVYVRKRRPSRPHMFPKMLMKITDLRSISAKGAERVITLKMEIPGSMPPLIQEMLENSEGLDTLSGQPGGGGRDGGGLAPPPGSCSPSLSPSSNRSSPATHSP
Assay: ligand binding assay, RARα
Details: RARα receptor subtype; read-out: RAR Kd (nM) α
Description: A holoreceptor transactivation assay and a ligand binding assay which measure the antagonist/agonist like activity of the compounds of the invention, or their ability to bind to the several retinoid receptor subtypes, respectively, are described in published PCT Application No. WO WO93/11755 (particularly on pages 30-33 and 37-41) published on Jun. 24, 1993, the specification of which is also incorporated herein by reference. […]
parameter: Kd (nM)

1) CC12CCC(C)(CC1)c1c2cc(C(=O)Nc2ccc(C(=O)O)c(F)c2)c(O)c1Br : 32
2) CC12CCC(C)(CC1)c1c2cc(C(=O)Nc2cc(F)c(C(=O)O)c(F)c2)c(O)c1Br : 84
3) CC12CCC(C)(CC1)c1cc(C(=O)Nc3ccc(C(=O)O)c(F)c3)c(O)cc12 : 53
